The reported measurements were obtained from BigSolDB 2.1.

measurement-context: in methanol, 293.15 K

# chemical-structure, solubility (mole fraction)
rows = [
    ("N#CCC(N)=O", 0.0273),
]

###

measurement-context: in THF, 288.15 K

# chemical-structure, solubility (mole fraction)
rows = [
    ("N#CCC(N)=O", 0.0145),
]

###

measurement-context: in methyl acetate, 273.15 K

# chemical-structure, solubility (mole fraction)
rows = [
    ("N#CCC(N)=O", 0.0115),
]

###

measurement-context: in dichloromethane, 283.15 K

# chemical-structure, solubility (mole fraction)
rows = [
    ("N#CCC(N)=O", 0.000471),
]

###

measurement-context: in acetone, 303.15 K

# chemical-structure, solubility (mole fraction)
measured = [
    ("N#CCC(N)=O", 0.0612),
]

###

measurement-context: in n-butanol, 313.15 K
measured-parameter: solubility (mole fraction)

# chemical-structure, assay-value
records = [
    ("N#CCC(N)=O", 0.00982),
]

###

measurement-context: in ethanol, 308.15 K

# chemical-structure, solubility (mole fraction)
data = [
    ("N#CCC(N)=O", 0.0188),
]

###

measurement-context: in chloroform, 288.15 K

# chemical-structure, solubility (mole fraction)
rows = [
    ("N#CCC(N)=O", 0.000678),
]
